Test system: LATS2
protocol.conditions: Compound Concentration (nM):1000;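 also: KINOMEscan scanMAX binding as percent activity remaining versus control; lower means stronger binding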
measurement.label: Percent Control (%)
Please respond with the number in % and leave the unit unwritten.

Worked examples follow.
>  <molecule>
COc1cccc(-c2c[nH]c3c(N/N=C/c4ccncc4)ncnc23)c1 [GW814408X]

>  <Percent Control [%]>
89

$$$$
>  <molecule>
NS(=O)(=O)c1ccc(N/N=C2\C(=O)Nc3ccc(C(=O)NCCc4c[nH]cn4)cc32)cc1 [GW300660X]

>  <Percent Control [%]>
100

$$$$
>  <molecule>
CCS(=O)(=O)c1ccc(OC)c(Nc2ncc(-c3cccc(F)c3)o2)c1 [GW621970X]

>  <Percent Control [%]>
100

$$$$
>  <molecule>
Cc1cc(O)cc(C)c1/C=C/c1cncc(C(N)=O)c1 [GW435821X]

>  <Percent Control [%]>
96

$$$$

// switching to the query molecule
Query: Please report the measured Percent Control for Cl.O=C(O[C@H]1CN[C@H](C#Cc2cc3ncnc(Nc4ccc5c(cnn5Cc5ccccc5)c4)c3s2)C1)N1CCOCC1 [GSK200398A]
Response: 100

###

System: YSK4
Construct: gene MAP3K19
protocol.conditions: Compound Concentration (nM):1000
measurement.label: Percent Control (%)
Please respond with the number in % and leave the unit unwritten.

Worked examples follow.
>  <compound>
COc1ccccc1-c1cc(/C=C2\C(=O)Nc3ncc(Br)cc32)cc(Br)c1O [GW442130X]

>  <measurement.label>
Percent Control

>  <readout.unit>
%

>  <measured>
98

$$$$
>  <compound>
CCS(=O)(=O)c1ccc(OC)c(Nc2ncc(-c3cccc(F)c3)o2)c1 [GW621970X]

>  <measurement.label>
Percent Control

>  <readout.unit>
%

>  <measured>
90

$$$$
>  <compound>
CCS(=O)(=O)c1ccc(OC)c(Nc2ncc(-c3cccc(OC)c3)o2)c1 [GW580509X]

>  <measurement.label>
Percent Control

>  <readout.unit>
%

>  <measured>
96

$$$$

// switching to the query compound
Query: Look up YSK4 data: Percent Control of Cl.O=S1CCN(Cc2ccc(-c3ccc4ncnc(Nc5ccc(OCc6ccccc6)c(F)c5)c4c3)o2)CC1 [GW576924A] , then report it.
Response: 100

###

Tested on: CSNK1G1
protocol.conditions: Compound Concentration (nM):1000
measurement.label: Percent Control (%)
Please respond with the number in % and leave the unit unwritten.

>  <compound>
CCn1c(-c2nonc2N)nc2c(C#CC(C)(C)O)nc(OCCNC)cc21.Cl [GSK949675]

>  <target.system>
CSNK1G1

>  <Percent Control, %>
100

$$$$

Query: Please report the measured Percent Control for Cc1cc(O)cc(C)c1/C=C/c1cncc(C(N)=O)c1 [GW435821X]
Response: 100

Query: Please report the measured Percent Control for NS(=O)(=O)c1ccc(N/N=C2\C(=O)Nc3ccc(C(=O)NCCc4c[nH]cn4)cc32)cc1 [GW300660X]
Response: 100

Query: Please report the measured Percent Control for COc1cc(/C=N/Nc2ncnc3[nH]ncc23)ccc1O [GW578748X]
Response: 67

Query: Please report the measured Percent Control for COc1cc(N2CCN(C(C)C)CC2)ccc1Nc1nc(Nc2ccc(F)cc2C(=O)NC[C@@H](O)CO)c2cc[nH]c2n1 [GSK1392956A]
Response: 52

Query: Please report the measured Percent Control for CCc1ccc(Oc2nccc(-c3c(-c4ccc(F)cc4)ncn3C3CCNCC3)n2)cc1 [SB-242719]
Response: 83

Query: Please report the measured Percent Control for NS(=O)(=O)c1ccc(Nc2ncc(-c3ccccc3)o2)cc1 [GW572399X]
Response: 100

Query: Please report the measured Percent Control for Cl.O=C(Nc1ccc(Oc2ccc3[nH]c(NC(=O)c4ccco4)nc3c2)cc1)Nc1cc(C(F)(F)F)ccc1F [GW683134A]
Response: 100
